Assay: chemical genetic growth profiling, strain panel (AID 1159580);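 also: tested at 20 µM; growth read once vehicle control cultures reached saturation at 30 °C; 1 = growth at the plate median or of vehicle wells; lower values mean less growth of the strain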
Conditions: S. cerevisiae deletion strains, growth OD, locus YJL154C, strain vps35, stronger effect = lower value
Screen size: about 5,500 compounds; about 2,000 (36%) were called active. Not shown: some 18% with an inconclusive outcome. The list shows a part of the results.

COMPOUND	normalized growth
CO/N=C(\C(=O)NC1C(=O)N2C(C(=O)O)=C(COC(N)=O)CSC12)c1ccco1 (stereo unspecified)	0.971
CN1C(C(=O)Nc2ccccn2)=C(O)c2ccccc2S1(=O)=O	0.962
CCC(C)C(=O)O[C@H]1C[C@H](O)C=C2C=C[C@H](C)[C@H](CC[C@@H](O)C[C@@H](O)CC(=O)O)C21 (stereo partly specified)	1.01
COc1cc(-c2coc3cc(OC)c(OC)c(OC)c3c2=O)cc(OC)c1OC	0.99
Cc1coc2c1C(=O)C(=O)c1c-2ccc2c1CCCC2(C)C	0.957
O=C1OC2(c3ccc(O)cc3Oc3cc(O)ccc32)c2ccccc21	1.02
CCC(C)(C)C(=O)O[C@H]1C[C@@H](C)C=C2C=C[C@H](C)[C@H](CC[C@@H]3C[C@@H](O)CC(=O)O3)[C@H]21	1.01
CC(C)NCC(O)c1cc(O)cc(O)c1 (stereo unspecified)	1.02
Cc1cc(NC(=O)C2=C(O)c3ccccc3S(=O)(=O)N2C)no1	0.939
CC(C)(Oc1ccc(C2CC2(Cl)Cl)cc1)C(=O)O (stereo unspecified)	1.01
CC1(C)O[C@H]2[C@H](O)C[C@](O)(C(N)=O)C[C@H]2O1	1.02
CC[C@H](C)C(=O)O[C@H]1CCC=C2C=C[C@H](C)C(CCC3C[C@@H](O)CC(=O)O3)[C@H]21 (stereo partly specified)	1
CC1=CC2C(CC1=O)C(C)=CCC2C(C)C (stereo unspecified)	1.01
Cc1ccc(C)c(OCCCC(C)(C)C(=O)O)c1	0.994
O=C(Cn1ccnc1[N+](=O)[O-])NCCO	1.02
O=S1OCC2C(CO1)C1(Cl)C(Cl)=C(Cl)C2(Cl)C1(Cl)Cl (stereo unspecified)	0.983
Nc1ccn(C2O[C@H](CO)[C@@H](O)[C@@H]2O)c(=O)n1 (stereo partly specified)	0.981
CC(C)(C)CC(C)(C)c1ccc(O)c(Cc2ccc(Cl)cc2Cl)c1	1.02
COC(=O)C[C@H]1C(C)(C)C(=O)[C@@H]2CC3=C(CC[C@]4(C)C3=CC(=O)O[C@H]4c3ccoc3)[C@@]1(C)C2=O	0.966
CO/N=C(\C(=O)N[C@@H]1C(=O)N2C(C(=O)O)=C(CSc3nc(=O)c(O)nn3C)CS[C@H]12)c1csc(N)n1	0.954
CC1OC1P(=O)(O)O (stereo unspecified)	0.996
COC(=O)[C@@H]1OC(=O)[C@H]2O[C@@]23[C@@]1(C)CCC1[C@@]2(C)CCC(=O)C(C)(C)C2C[C@@H](OC(C)=O)[C@]13C (stereo partly specified)	0.989
COc1cc2c(cc1OC)C1Cc3ccc(OC)c(OC)c3CN1CC2 (stereo unspecified)	0.981
NS(=O)(=O)c1cc2c(cc1Cl)NC(C(Cl)Cl)NS2(=O)=O (stereo unspecified)	0.978
Nc1nc2ncc(=O)[nH]c2c(=O)[nH]1	0.971
C=CC(N)CCC(=O)O (stereo unspecified)	0.974
CCCCOC(=O)c1ccccc1C(=O)OCCCC	0.985
CO/N=C(\C(=O)NC1C(=O)N2C(C(=O)OC(C)OC(C)=O)=C(COC(N)=O)CSC12)c1ccco1 (stereo unspecified)	1.01
Oc1ccc(Cl)cc1Cc1cc(Cl)ccc1O	0.0851
CCOC(=O)[C@H](CCc1ccccc1)N[C@@H](C)C(=O)N1[C@H](C(=O)O)C[C@@H]2CCC[C@@H]21	0.978
CC(C)[C@@H]1CC[C@@H](C)C[C@H]1O	0.972
